method-notes: qHTS Assay for Foot and Mouth Disease Virus Antivirals: Primary Screen against the MLPCN compound library; also: nearly all actives have a fitted effect of over 55% in size; also: potency is read from the fitted curve at half-maximal effect
conditions-used: FMDV antiviral cell-based qHTS; series mostly up to 57.9 µM
Among all 410,000 compounds or so, about 2,000 (0.49%) were called active. About 8% were inconclusive and are not listed. The sample as a whole holds a higher share of actives than the screen did.
quantity-measured: Potency

Cc1cc(C)c2sc(N(CCN(C)C)C(=O)c3c(F)cccc3F)nc2c1	inactive
Cc1ccc(S(=O)(=O)N(C)CCCC(=O)N2CCN(c3ccccn3)CC2)cc1	22.4 µM (active)
CCC1(c2ccc(F)cc2)NC(=O)N(CC(=O)Nc2cc(S(=O)(=O)N(C)C)ccc2Cl)C1=O (configuration not stated)	inactive
Cc1cccc(C(=O)n2c(=S)nc3cc(C)ccn32)c1	11.2 µM (active)
Cc1cc(C)n2nc(SCc3ccc(F)cc3Cl)nc2n1	inactive

Exercise: Value lookup for Potency; key = `CN1CCN(C(=O)c2cc3nc(-c4ccccc4)cc(C(F)(F)F)n3n2)CC1`
Solution: inactive

Exercise: Value lookup for Potency; key = `Cc1ccc(-c2noc(CCC(=O)NCCN3CCc4ccccc4C3)n2)cc1`
Solution: inactive
